Target: T1, CD27 expressed on the cell surface of HT1080_CD27 cells (human, UniProt P26842 20-260); also: test concentration or dose not given here
T1 sequence (looked up): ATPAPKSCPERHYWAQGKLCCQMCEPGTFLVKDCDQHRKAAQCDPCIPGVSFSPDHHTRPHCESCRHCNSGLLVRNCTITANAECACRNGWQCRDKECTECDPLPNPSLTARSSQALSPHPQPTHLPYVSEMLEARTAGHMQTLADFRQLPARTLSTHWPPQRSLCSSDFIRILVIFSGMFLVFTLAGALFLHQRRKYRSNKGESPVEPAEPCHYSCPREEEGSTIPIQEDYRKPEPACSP
Experiment: cell-based or functional assay
Readout Type: Functional assay Cross-linked by F(ab′)2 fragment IL-8 (abs. corr.)

# Binder, Unit Symbol, Result Value
data = [
    ("P018.S.09.A.C02 (antibody, V domains shown, V regions on human Ig constant parts; also called AB27_147) VH: QSVEESGGRLVTPGTPLTLTCTVSGIDLSSYVMSWVRQAPGKGLEWIGYIDYGGTAYYASWAKGRFTISKTSTTVELKITSPTIEDTATYFCARGGYGGYTLVTALWGPGTLVTVSS VL: DIVMTQTPASVSEPVGGTVTIKCQASQSISSYLSWYQQKPGQPPKLLIYSTSTLASGVSSRFKGSGSGTEYTLTISDLESADAATYYCQTYYGGGPFGNGFGGGTEVVVK", "abs. corr.", 1.07),
    ("P018.S.05.A.E03 (antibody, V domains shown, V regions on human Ig constant parts; also called AB27_89) VH: QSLEESGGRLVTPGGSLTLTCTVSGIDLSSYAMGWVRQAPGKGLEWIGYITYGGSTYYANWVNGRFTISKTSTMVDLKMTSLTAADTATYFCARLRAPYYYRIYFNLWGPGTLVTVSS VL: ALVMTQTPSSVEAAVGGTVTIKCQASQNIISALAWYQQKPGQPPKLLIYDASNLESGVPSRFKGSGSGTDFTLTISDLESADAATYYCQGAYDTNINDFGGGTEVVVK", "abs. corr.", 1.92),
    ("P018.S.01.A.E02 (antibody, V domains shown, V regions on human Ig constant parts; also called AB27_14) VH: QSVEESGGRLVTPGTPLTLTCTASGFSLSNYYMSWVRQAPGKGLEWIGIISTYGDTYYATWAKGRFTISKTSTTVDLKITSPTTEDTATYFCARGSSDTYYTYFNLWGPGTLVTVSS VL: DIVMTQTPASVEAAVGGTVTIKCQASQKIYNNLAWYQQKPGQPPKLLIYSASTLASGVPSRFKGSGSGTEFTLTISDLESADAATYYCQSYGVSANTISYGLPFGGGTEVVVK", "abs. corr.", 1.17),
]
